- Study Target: hPAD4 (Homo sapiens, UniProt Q9UM07)
- Sequence (Q9UM07 whole entry): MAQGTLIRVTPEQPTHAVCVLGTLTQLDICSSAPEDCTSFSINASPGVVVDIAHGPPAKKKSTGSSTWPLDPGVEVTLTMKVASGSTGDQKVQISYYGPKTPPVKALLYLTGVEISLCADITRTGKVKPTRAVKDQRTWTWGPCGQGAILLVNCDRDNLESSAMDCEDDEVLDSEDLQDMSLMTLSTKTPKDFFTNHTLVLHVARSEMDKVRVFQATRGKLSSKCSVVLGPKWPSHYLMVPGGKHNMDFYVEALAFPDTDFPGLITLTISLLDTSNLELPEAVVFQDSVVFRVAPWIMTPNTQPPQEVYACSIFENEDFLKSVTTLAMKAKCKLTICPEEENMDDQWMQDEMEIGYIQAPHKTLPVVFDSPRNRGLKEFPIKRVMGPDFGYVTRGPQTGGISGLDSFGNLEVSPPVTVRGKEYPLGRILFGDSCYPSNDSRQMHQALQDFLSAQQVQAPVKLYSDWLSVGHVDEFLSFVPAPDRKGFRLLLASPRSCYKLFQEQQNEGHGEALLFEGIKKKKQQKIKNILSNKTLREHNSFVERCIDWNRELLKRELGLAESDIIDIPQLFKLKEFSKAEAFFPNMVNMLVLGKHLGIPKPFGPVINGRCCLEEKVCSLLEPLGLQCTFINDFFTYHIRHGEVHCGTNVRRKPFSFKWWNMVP
- Protocol Summary: hPAD4 RFMS (RapidFire mass spectrometry) PAD4 inhibition assay;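 note: grade E means pIC50 at most 4 and F means pIC50 4.0 to 5.0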
- Assay type: biochemical
- Settings: hPAD4 enzyme, RFMS readout; pIC50=−log(IC50); read-out: hPAD4 RFMS pIC50 (converted)
List of IC50 values.

[
  {
    "Compound": "COc1ccc2cc(-c3nc4cc(C(=O)N5CCC[C@@H](N)C5)ccc4n3C)n(CC3CC3)c2n1",
    "IC50": "< 1 µM"
  }
]

Query: Can you share its IC50? I mean this compound: Cn1c(-c2cc3cccnc3n2CC2CC2)nc2cc(C(=O)N3CCCC4NCCC43)ccc21 (centres unmarked)
Response: 10 to 100 µM

Query: Name the reported IC50 value associated with the compound "CCn1c(-c2nc3cc(C(=O)N4CCC[C@@H](N)C4)cc(OC)c3n2C)cc2ccc(C)nc21"
Response: < 1 µM

Query: Which IC50 is listed for Cn1c(-c2cc3cccnc3n2CC2CC2)nc2cc(C(=O)N3CCCC4NCCCC43)ccc21 (centres unmarked) ?
Response: > 100 µM

Query: Dear colleague, I am looking for the recorded IC50 of the following compound: COc1cc(C(=O)N2CCC3OCCNC3C2)cc2nc(-c3cc4cccnc4n3CC3CC3)n(C)c12 (racemic)
Response: 1 to 10 µM

Query: Entry "COc1cc(C(=O)N2C[C@@H](N)C[C@H](F)C2)cc2nc(-c3cc4cccnc4n3CC3CC3)n(C)c12" : reported IC50 = ?
Response: < 1 µM
